These entries and their values trace back to ChEMBL document CHEMBL1150349.

tested.on: Calcium-activated potassium channel subunit alpha-1 (Rattus norvegicus) (UniProt Q62976)
Sequence (Q62976 whole entry): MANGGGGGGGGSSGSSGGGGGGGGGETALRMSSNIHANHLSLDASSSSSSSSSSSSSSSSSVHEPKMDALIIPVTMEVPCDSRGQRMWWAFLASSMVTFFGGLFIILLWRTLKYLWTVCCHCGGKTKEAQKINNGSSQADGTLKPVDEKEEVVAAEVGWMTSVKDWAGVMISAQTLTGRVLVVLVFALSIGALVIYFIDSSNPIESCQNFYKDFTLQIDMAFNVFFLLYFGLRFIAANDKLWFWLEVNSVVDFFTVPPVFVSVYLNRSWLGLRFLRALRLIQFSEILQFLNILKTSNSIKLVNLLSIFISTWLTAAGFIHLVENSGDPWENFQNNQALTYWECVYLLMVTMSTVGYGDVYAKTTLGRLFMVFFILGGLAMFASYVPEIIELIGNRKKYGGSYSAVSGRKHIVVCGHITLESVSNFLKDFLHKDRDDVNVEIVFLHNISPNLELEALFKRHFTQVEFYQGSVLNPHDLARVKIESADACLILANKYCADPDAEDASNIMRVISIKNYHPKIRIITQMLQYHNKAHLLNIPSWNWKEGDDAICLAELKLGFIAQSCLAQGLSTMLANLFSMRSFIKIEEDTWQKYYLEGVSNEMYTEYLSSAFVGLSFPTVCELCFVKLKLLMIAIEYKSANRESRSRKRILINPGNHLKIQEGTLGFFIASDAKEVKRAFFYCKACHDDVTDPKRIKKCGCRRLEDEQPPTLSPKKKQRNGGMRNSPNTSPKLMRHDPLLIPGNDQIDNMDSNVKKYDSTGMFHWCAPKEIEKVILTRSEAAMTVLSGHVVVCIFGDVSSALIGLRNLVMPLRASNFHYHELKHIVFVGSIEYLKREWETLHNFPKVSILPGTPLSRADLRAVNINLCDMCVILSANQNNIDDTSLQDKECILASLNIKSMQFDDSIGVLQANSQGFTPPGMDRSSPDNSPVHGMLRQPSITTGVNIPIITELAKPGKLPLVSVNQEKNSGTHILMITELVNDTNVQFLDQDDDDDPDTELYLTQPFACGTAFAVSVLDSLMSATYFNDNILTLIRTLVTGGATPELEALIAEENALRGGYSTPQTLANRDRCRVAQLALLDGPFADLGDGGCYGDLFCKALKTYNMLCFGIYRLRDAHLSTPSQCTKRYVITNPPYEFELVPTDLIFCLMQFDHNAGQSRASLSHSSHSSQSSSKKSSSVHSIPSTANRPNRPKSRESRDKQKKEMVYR
experiment.summary: Activation of BK channel in rat cerebral myocytes by voltage patch clamp method
Format: cell-based
Activity calls are given as the source filed them. No cut-off for these calls is given here.
Assign a class; possible classes are class 1 = active, class 0 = inactive

Record lookup: outcome of this test for `O=C(O)CCCCCC#CCCCO` ?
class 1

Outcome logged for `COC(=O)CCCCCCCCCC#CCCCCO` in this assay:
class 0

Kindly provide the recorded test outcome for the following compound: `COC(=O)CCCCC#CCCCO`
class 1

So what was the verdict on `COC(=O)CCCCCCCC#CCCCCO` in this test?
class 0

Dear colleague, could you share the recorded outcome for `COC(=O)CCCC#CCCO` when you have a moment?
class 0

Field: outcome | Entry: `O=C(O)CCCCCC#CCCCCO`
class 1
